So I've got a bunch of compounds here, and I need their % inhibition female (individual replicates) R4 values.
# Test system: P. falciparum female gametocytes
# Experimental Details: P. falciparum Dual Gamete Formation Assay (PfDGFA), female readout (Pfs25-positive female gametes)
# Assay type: cell-based, Plasmodium falciparum NF54
# Experimental Context: PfDGFA at 2µM, 24h preincubation with gametocytes prior to induction of gametogenesis; replicate R4
Numbers only, in %.

Some solved entries appear below for comparison.
{"Compound": "O=C(Nc1ccc([N+](=O)[O-])cc1)c1nn(-c2ccccc2)cc1/N=C/c1cccc(O)c1", "Result Number": -3.2}
{"Compound": "CC(C)CN1CCC(COc2ccc3ncn(-c4cc(O[C@H](C)c5ccccc5C(F)(F)F)c(C(N)=O)s4)c3c2)CC1", "Result Number": -5.5}
{"Compound": "OCc1c(Cl)cc(Cl)cc1CNCCCNc1nc2ccccc2[nH]1", "Result Number": -3.1}
{"Compound": "CNC(=O)C(NC(=O)c1ccccc1C(=O)OC)c1ccccc1 (centres unmarked)", "Result Number": -6.5}
{"Compound": "O=C(C1CCCC1)N1CCOC(CCN2CCC(c3ccccc3)CC2)(c2ccc(Cl)c(Cl)c2)C1 (centres unmarked)", "Result Number": 17.1}

Each compound below has a reported value. Please supply its % inhibition female (individual replicates) R4.
1. CN(C)CCCNCc1ccc(-c2ccc(CNCCOc3ccccc3)cc2)cc1.O=C(O)C(F)(F)F
2. CS(=O)(=O)c1ccc(-n2nc(C(F)(F)F)cc2-c2ccc(C=NOCC(=O)O)o2)cc1
3. COc1ccc(N2C(N)=NC(N)=NC2(C)C)cc1.Cl

1. -9.2
2. 0.25
3. 10.3
